Where these numbers come from: PubChem BioAssay (NCI)

Reported TGI values follow for various molecules
- System: MOLT-4 leukemia
- Test Protocol: NCI tumour cell line growth inhibition, 48 h
Where a SMILES comes first, the peptide text is derived from it. The star is where a group is joined. Fmoc = O=C(OCC1c2ccccc2-c2ccccc21)*; Boc = CC(C)(C)OC(=O)*

Illustrative cases are given below, each with its answer.
COc1cc(Nc2ccnc(NCCCNc3ccnc4cc(Cl)ccc34)n2)cc(OC)c1 | 6.39 µM
CC(C)(C)OC(=O)NCCCCC(NC(=O)OCC1c2ccccc2-c2ccccc21)C(=O)N1CCCC1C(=O)NCC(N)=O (stereo not drawn) (Fmoc-Lys(Boc)-Pro-Gly-NH2; configuration not given here) | 77.3 µM
Cc1cc(Cl)ccc1NC(=O)c1cc2ccccc2cc1O | > 36.2 µM

Quick note, TGI for CSCCCNC(=O)c1csc(-c2csc(C(CNC(=O)OC(C)(C)C)CNC(=O)OC(C)(C)C)n2)n1 landed at 43.9 µM

Lab note: measured TGI of COc1ccc(OC)c(/C=C(/C)[N+](=O)[O-])c1 was > 100 µM

Record COc1ccc(/C=C2\CCC(CNc3ccc(OC)cc3)C2=O)cc1 (stereo unspecified) . Reported TGI: > 40.8 µM

Record CCN1CCN(c2nc3ccc([N+](=O)[O-])cc3nc2C(=O)c2ccccc2)CC1 . Reported TGI: > 100 µM

Record summary for CNC(=O)N(C)COC : reported TGI = > 100 µM

Lab note: Cc1cc(C)nc(NS(=O)(=O)c2ccc(Nc3c4ccc(Cl)cc4nc4c(C(=O)Nc5ccc(S(N)(=O)=O)cc5)cccc34)cc2)n1 gave TGI of 39.7 µM

Reported TGI ( C/C(=C/C(=O)Nn1c(Cc2ccccc2)n[nH]c1=O)C(=O)O ) = > 100 µM
